TEST DESCRIPTION: yeast display, Sf9 membrane polyspecificity reagent, FACS + sequencing; frameworks hold sequencing errors
MEASURE NAME: polyreactivity (PSR sort gate)

# example entries with known answers
| SEQ | VALUE MEASURED |
| --- | --- |
| QFQLLDSGGGLVQAGGSLRLSSAPSGFTIIGYDMGWYRQAPVKERELVAAIDWSGGSTYYADSVKGRFTISRDNAKYSVDLQMHSLKPEDTAVYYCNAEWSSKRFTGDDYWGQGTQVTVSS | low polyreactivity |
| QVQLVESGGGLVQAGGSLRLSCAASGYTFPLYAMGWSRQAPGKEREFVAAISKRSGTTYYADSVKGRFTISRDNAKNTVYLQMNSLKPEDTAVYYCAASNGYQAVTYDYWGQGTQVTVSS | high polyreactivity |
| QVQLVESGGGLVQAGGSLRLSFAASGSIFNYNAMGWYRQAPGKERELVAAITYADSVKGRFTISRDNAKNTVYLQMNSLKPEDTAVYHCNTHYVPSFRFDYWGQGTQVTVSS | low polyreactivity |
| QDQLVESGVGFVQAGVSLRLSSAASGSIFYLNAMGWYRQAPGKERELVAAITNGGSTYADSVKGRFTISRDNAKNTVYLPMNSLKPEDPAVYYCATRSWELGDYLGQGTQVTVSS | low polyreactivity |

# evaluate next
Prompt: # polyreactivity (PSR sort gate) lookup, item `QVQLVESGGGLVQAGGSLRLSCAASGRIFYDYAMGWYRQAPGKEWELVAAISGSGGSTYYADSVKGRFTISRDNAKNTVYLQMNSLKPEDTAVYYCNRYTTRYYPGGDYWGQGTQVTVSS`
Completion: high polyreactivity
